Provenance of the data: the supplement of paper PMC6555819

Test system: PXR homodimer (NR concentration 270 nM)
Test: PBM binding z-score (relative to random genomic background probes); higher = stronger binding; sequences stand for … in GC…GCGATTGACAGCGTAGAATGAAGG
# PBM binding z-score annotations
Format: numeric value only, no unit, no commentary.

Study these solved cases before continuing.
Identify PBM binding z-score associated with the sequence "GATACAGGGTCAGCTAGAGGTCAGAGTATGGAAA"
1.34

Identify PBM binding z-score associated with the sequence "CCTAGCAGGCCAGGGTCACCCAAGCATTTCGCTT"
-0.361

Identify PBM binding z-score associated with the sequence "ACTCGGAGGACAAAGGTGAGAGCTACGCCAGTGA"
-0.385

Identify PBM binding z-score associated with the sequence "CCGAGTAGGTCACGAGGGGGCATTCAGTGCGAAT"
4.34

Identify PBM binding z-score associated with the sequence "TAGCCTAGGTCATGCGGGCCAGTATAGTGTCGGC"
-0.724

Identify PBM binding z-score associated with the sequence "ATATTTAGGTTAGGGTCATTCAGAAAGTAGGGAA"
2.43

More entries:
Identify PBM binding z-score associated with the sequence "CAAACTAGGTCACCGTAAGGTCAAAGTCCGCATG"
2.62

Identify PBM binding z-score associated with the sequence "CGAACTAGGTCAAAAGACAGTGAAAGGCGACGTA"
-0.275

Identify PBM binding z-score associated with the sequence "CAAACTAGGTCACGAGGTCAAAGTCCGCTTCCCG"
3.42

Identify PBM binding z-score associated with the sequence "TCGAGTAGGTTAGGGGGGCATTCAGGGATGAAGA"
3.93

Identify PBM binding z-score associated with the sequence "CTATGTAGGTTAAGGGGGTCATTCATTTTGAAAG"
5.06

Identify PBM binding z-score associated with the sequence "CCTTACGGGTCCCTGACAGGTTATAGCATTTGGA"
-0.274

----------
Test system: RARg homodimer (NR concentration 270 nM)
Test: PBM binding z-score (relative to random genomic background probes); higher = stronger binding; sequences stand for … in GC…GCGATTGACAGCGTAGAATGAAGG
# PBM binding z-score annotations

Provide RARg homodimer (NR concentration 270 nM) PBM binding z-score reading for "CGAACTAGGTCACCAGGACAATGAAGAGGTTGGA" .
5.1

Provide RARg homodimer (NR concentration 270 nM) PBM binding z-score reading for "CCTAGCAGGCCAATCGGGGTCACTCAAGGCTTGA" .
3.43

Provide RARg homodimer (NR concentration 270 nM) PBM binding z-score reading for "CGATCTAGGTCACCAGGACAGTGAAGAGGTTGGA" .
5.15

Provide RARg homodimer (NR concentration 270 nM) PBM binding z-score reading for "CCGAGTAGGTTACGAGGGGGCATTCACTGCGAAT" .
2.43

Provide RARg homodimer (NR concentration 270 nM) PBM binding z-score reading for "ATACCAAGGTCATCGTGAGGTCGTTGATACTAAC" .
6.27

Provide RARg homodimer (NR concentration 270 nM) PBM binding z-score reading for "ATATGTAGGTTCCATCCGGGTCATTCAGGCTATG" .
1.19

Provide RARg homodimer (NR concentration 270 nM) PBM binding z-score reading for "CCTTACGGGTCACGGGGTTATAGCACGACGAGCG" .
5.54

Provide RARg homodimer (NR concentration 270 nM) PBM binding z-score reading for "CCGAGTAGGTTACGAAGGGGCATTCAGTGCGAAT" .
1.2

// switching to the query sequence
Provide RARg homodimer (NR concentration 270 nM) PBM binding z-score reading for "CTCGAAAGGGCGTGCTCAGGTGAGTATACCAAAC" .
0.829
